Cited source: PubChem BioAssay (NCI)

Tested on: DLD-1 colon
ASSAY_SUMMARY: NCI tumour cell line growth inhibition, 48 h
TGI for assorted molecules
OUTCOME_MEASURE: TGI

molecule=C/C(=N\Nc1ccccc1)c1sc(-c2nc(C)c(/C(C)=N/Nc3ccccc3)s2)nc1C outcome_measure=TGI result="> 100 µM"
molecule=C/C(=C1/N=C(c2cc([N+](=O)[O-])ccc2Cl)N(c2ccc(Br)cc2)C1=O)c1ccc(N(CCC#N)CCC#N)cc1C outcome_measure=TGI result="32.2 µM"
molecule="O=C(CCC(=O)Nc1ccccc1C(F)(F)F)N/N=C1\\C(=N\\NC(=O)CCC(=O)Nc2ccccc2C(F)(F)F)C(c2ccc3c(c2)OCO3)Oc2ccccc21 (centres undefined)" outcome_measure=TGI result="> 100 µM"
molecule="CC1(CO)C(O)CCC2(C)C1CCC1CC3CC12CCC3(O)CO (centres undefined)" outcome_measure=TGI result="> 100 µM"
molecule="C[C@H]1CCC/C=C/C2CC(OC(=O)CN(C)C)CC2C(OC(=O)CN(C)C)/C=C/C(=O)O1 (some centres undefined)" outcome_measure=TGI result="> 37.1 µM"
molecule="Cc1cc(=O)oc2c(C3=NN(C=O)C(c4ccccc4)C3)c(O)ccc12 (centres undefined)" outcome_measure=TGI result="> 100 µM"
molecule="CC1CC(C[N+](=O)[O-])CC2(C1)OCCO2 (centres undefined)" outcome_measure=TGI result="> 100 µM"
molecule="NC(CCSCC(F)(F)F)C(=O)O (centres undefined)" outcome_measure=TGI result="> 100 µM"
molecule=c1ccc2c(c1)nnn2CNc1ccc(N2CCCCC2)cc1 outcome_measure=TGI result="> 100 µM"

----------
Test system: OVCAR-5 ovarian
ASSAY_SUMMARY: NCI tumour cell line growth inhibition, 48 h
OUTCOME_MEASURE: TGI

molecule="Cc1ccc(S(=O)(=O)N(CC(O)COc2ccccc2)c2c(F)c(F)cc(F)c2F)cc1 (stereo not given)" result="76.3 µM"
molecule=COc1ccccc1N1CCN(CCCCNC(=O)c2ccc([N+](=O)[O-])o2)CC1 result="33.1 µM"
molecule=CC(C)C[C@H](CC(=O)O)C(=O)N[C@@H](Cc1c[nH]c2ccccc12)C(=O)N[C@@H](C)c1ccccc1 result="> 25 µM"
molecule=c1ccc2c(c1)[nH]c1cnc3c4ncccc4[nH]c3c12 result="> 100 µM"
molecule="Nc1nc(=O)n(C2CC(O)C(CO)O2)cc1F (stereo not given)" result="> 100 µM"
molecule=C[C@@H]1C[C@H]2OC(=O)[C@@]3(C)CCC[C@@](C)([C@@H]23)[C@@]1(O)CCc1ccoc1 result="> 100 µM"
molecule=CCOC(=O)NN(C(=O)OCC)c1ccc(N=Nc2ccc(OC)cc2)n1C result="> 100 µM"
molecule="O=C(CCC(=O)Nc1ccccc1C(F)(F)F)N/N=C1\\C(=N\\NC(=O)CCC(=O)Nc2ccccc2C(F)(F)F)C(c2ccc3c(c2)OCO3)Oc2ccccc21 (stereo not given)" result="> 100 µM"
molecule=COc1ccc2[nH]c(Cl)c(/C=C3/C(=O)Nc4ccccc43)c2c1 result="3.12 µM"
molecule="CCCCC(C(=O)C(=O)Nc1ccc(C)cc1C)C(=O)C(C)C (stereo not given)" result="> 100 µM"
molecule="Cc1ccc(C2(O)c3ccccc3C(=O)N(C)C2(O)c2ccc(C)cc2)cc1 (stereo not given)" result="> 100 µM"
molecule=Oc1ccc(-c2c3ccccc3c(-c3ccc(O)cc3)c3ccccc23)cc1 result="> 100 µM"
molecule=CCOC(=O)/C(Br)=C1\OC(=O)c2ccccc2-c2ccccc21 result="> 100 µM"
molecule="CC(C)N(C(=O)C12C3C4C1C1C2C3C41C(=O)C(C)(C)C)C(C)C (stereo not given)" result="> 100 µM"
molecule=C=CC(=O)N[C@@H]1CN(c2nc(Nc3cn(C)nc3OC)c3ncn(C)c3n2)C[C@H]1F result="> 100 µM"
molecule="CC1CC(=O)Nc2ccc(Cl)cc2N1C(=O)CN1CCC(CCCCN(C)C)CC1 (stereo not given)" result="> 100 µM"
molecule="C/C=C1\\CC(C(=O)OCC)CCCCCCC1=O (stereo not given)" result="> 100 µM"
molecule=CCOC(=O)/C=C/n1c2ccccc2c(=O)c2cc(OC)ccc21 result="> 100 µM"
molecule=COc1ccc(C(c2ccccc2C(=O)O)c2ccc(OC)c3ccccc23)c2ccccc12 result="31.4 µM"
molecule=CC1=C(C(=O)Nc2cccc(Cl)c2)C(c2ccccc2O)C(C(=O)Nc2cccc(Cl)c2)=C(C)N1 result="38.6 µM"
